These entries and their values trace back to paper PMC9179981.

- method: in vitro
- condition-summary: human
property-name: IC50 at 24 h (µM)
One number for each entry, in µM.

Looking up Cl.O=C(NCCCNc1c2c(nc3ccccc13)CCC2)c1c2ccccc2nc2ccccc12 , I found its IC50 at 24 h recorded as 32

###

- tested-target: BuChE (EC 3.1.1.8, equine serum) (Equus caballus, UniProt P81908)
- Construct: purchased Sigma Aldrich (Steinheim, Germany); host or cells: equine serum
- Sequence (P81908 whole entry): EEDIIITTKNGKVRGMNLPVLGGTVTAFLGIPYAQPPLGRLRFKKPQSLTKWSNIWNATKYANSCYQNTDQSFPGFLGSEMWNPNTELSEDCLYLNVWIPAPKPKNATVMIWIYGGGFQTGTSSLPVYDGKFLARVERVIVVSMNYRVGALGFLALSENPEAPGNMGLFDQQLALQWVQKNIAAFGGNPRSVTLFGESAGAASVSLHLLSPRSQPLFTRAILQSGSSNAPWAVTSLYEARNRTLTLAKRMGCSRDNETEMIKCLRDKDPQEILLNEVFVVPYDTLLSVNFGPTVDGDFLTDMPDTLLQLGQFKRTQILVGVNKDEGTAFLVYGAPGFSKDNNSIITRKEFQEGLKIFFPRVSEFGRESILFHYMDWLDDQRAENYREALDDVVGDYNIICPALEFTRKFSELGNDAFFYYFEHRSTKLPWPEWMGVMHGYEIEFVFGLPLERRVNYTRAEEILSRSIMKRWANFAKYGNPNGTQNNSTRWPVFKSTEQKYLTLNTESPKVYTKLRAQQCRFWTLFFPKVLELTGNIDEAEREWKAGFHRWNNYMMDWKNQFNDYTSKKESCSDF
- method: biochemical
- Format: biochemical
- condition-summary: IC50(AChE)/IC50(BuChE)
property-name: Selectivity for BuChE
One number for each entry.

Completed entries (count: 5):
structure-as-smiles	Selectivity for BuChE
Cl.O=C(NCCNc1c2c(nc3ccccc13)CCC2)c1c2ccccc2nc2ccccc12	15.96
Cl.O=C(NCCCCNc1c2c(nc3ccccc13)CCC2)c1c2ccccc2nc2ccccc12	1.36
Cl.O=C(NCCCCCNc1c2c(nc3ccccc13)CCC2)c1c2ccccc2nc2ccccc12	23.39
Cl.O=C(NCCCCCCCCCNc1c2c(nc3ccccc13)CCC2)c1c2ccccc2nc2ccccc12	2.95
Cl.O=C(NCCCCCCCNc1c2c(nc3ccccc13)CCC2)c1c2ccccc2nc2ccccc12	0.56

Go through the list and state Selectivity for BuChE for each entry.
1. Cl.O=C(NCCCCCCCCNc1c2c(nc3ccccc13)CCC2)c1c2ccccc2nc2ccccc12
2. Cl.O=C(NCCCCCCNc1c2c(nc3ccccc13)CCC2)c1c2ccccc2nc2ccccc12

1: 3.95; 2: 2.02
